The reported numbers originate from ChEMBL document CHEMBL3120147.

- targetUnderTest: UniProt:P07374
- experimentalProtocol: Non-competitive inhibition of jack bean urease using urea as substrate assessed as ammonia production after 15 mins by Lineweaver-Burk/Dixon plot analysis
propertyName: Ki (µM)
Quick note: give the figure in µM, leave out the unit.

Query: Looking for the measured Ki of `Cc1ccc(NC(=S)Nc2cccc(Cl)c2)cc1` , can you help?
Response: 12.1

###

Documented pKi across a set of compounds
- targetUnderTest: Urease (Canavalia ensiformis, UniProt P07374)
- Sequence (P07374 whole entry): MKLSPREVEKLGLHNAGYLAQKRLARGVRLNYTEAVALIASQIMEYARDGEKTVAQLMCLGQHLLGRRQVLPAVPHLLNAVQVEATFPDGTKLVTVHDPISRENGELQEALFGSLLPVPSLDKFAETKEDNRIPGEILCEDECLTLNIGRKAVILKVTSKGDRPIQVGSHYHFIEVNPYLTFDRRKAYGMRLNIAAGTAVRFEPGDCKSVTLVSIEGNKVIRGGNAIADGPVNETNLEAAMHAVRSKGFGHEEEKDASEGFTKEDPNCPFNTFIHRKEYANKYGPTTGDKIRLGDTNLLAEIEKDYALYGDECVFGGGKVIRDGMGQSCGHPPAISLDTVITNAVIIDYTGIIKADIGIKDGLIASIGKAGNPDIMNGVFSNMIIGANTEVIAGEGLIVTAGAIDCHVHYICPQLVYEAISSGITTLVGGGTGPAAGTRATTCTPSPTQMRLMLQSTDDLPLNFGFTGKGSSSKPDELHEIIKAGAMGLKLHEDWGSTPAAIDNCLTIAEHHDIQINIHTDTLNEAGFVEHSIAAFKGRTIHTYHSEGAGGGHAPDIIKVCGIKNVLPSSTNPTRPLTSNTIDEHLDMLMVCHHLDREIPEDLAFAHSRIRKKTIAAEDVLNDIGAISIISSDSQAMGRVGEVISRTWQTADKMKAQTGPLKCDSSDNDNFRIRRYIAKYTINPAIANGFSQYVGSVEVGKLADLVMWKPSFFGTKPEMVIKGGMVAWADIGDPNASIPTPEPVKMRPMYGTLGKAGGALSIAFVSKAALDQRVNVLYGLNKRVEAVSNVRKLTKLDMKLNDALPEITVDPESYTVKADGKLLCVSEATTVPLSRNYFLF
- experimentalProtocol: Competitive inhibition of jack bean urease using urea as substrate assessed as ammonia production after 15 mins by Lineweaver-Burk/Dixon plot analysis
The read-out pKi is expressed as -log10 of concentration in moles per litre.

Consider the following illustrative entries.
Query: Looking for the measured pKi of `S=C(Nc1cccc(Cl)c1)Nc1ccc(Cl)c(Cl)c1` , can you help?
Response: 4.93

Query: Looking for the measured pKi of `S=C(Nc1ccccc1)Nc1cccnc1` , can you help?
Response: 5.07

More entries:
Query: Looking for the measured pKi of NC(N)=S [THIOUREA] , can you help?
Response: 4.70

###

- targetUnderTest: Urease (Canavalia ensiformis, UniProt P07374)
- experimentalProtocol: Inhibition of jack bean urease using urea as substrate assessed as ammonia production after 15 mins by indophenol method
- setupConditions: read-out: IC50
propertyName: IC50 (µM)
Quick note: give the figure in µM, leave out the unit.

Consider the following illustrative entries.
Query: Looking for the measured IC50 of `S=C(Nc1ccccc1)Nc1ccc(Br)cc1` , can you help?
Response: 34.3

Query: Looking for the measured IC50 of `S=C(Nc1cccc(Cl)c1)Nc1ccc(Cl)c(Cl)c1` , can you help?
Response: 11

Query: Looking for the measured IC50 of `S=C(Nc1ccccc1)Nc1cccc(Br)c1` , can you help?
Response: 18.3

Query: Looking for the measured IC50 of `COc1cccc(NC(=S)Nc2cccc(Cl)c2)c1` , can you help?
Response: 24.5

Query: Looking for the measured IC50 of `Cc1ccccc1NC(=S)Nc1cccc(Cl)c1` , can you help?
Response: 34.4

Query: Looking for the measured IC50 of `S=C(NCc1cccnc1)Nc1ccccc1` , can you help?
Response: 33.5

More entries:
Query: Looking for the measured IC50 of `Cc1cccc(NC(=S)Nc2cccc(Cl)c2)c1` , can you help?
Response: 15

###

- targetUnderTest: Urease (Canavalia ensiformis, UniProt P07374)
- experimentalProtocol: Inhibition of jack bean urease using urea as substrate assessed as ammonia production after 15 mins by indophenol method
- setupConditions: read-out: IC50
Documented IC50 across a set of compounds
Quick note: give the figure in µM, leave out the unit.

Query: Looking for the measured IC50 of `S=C(NCc1cccnc1)Nc1cccc(Cl)c1` , can you help?
Response: 23

More entries:
Query: Looking for the measured IC50 of `Cc1cccc(C)c1NC(=S)Nc1cccc(Cl)c1` , can you help?
Response: 27.4

Query: Looking for the measured IC50 of `Cc1ccc(Cl)cc1NC(=S)Nc1cccc(Cl)c1` , can you help?
Response: 20.1

Query: Looking for the measured IC50 of `Cc1nc(NC(=S)Nc2ccccc2)ccc1Br` , can you help?
Response: 82.7

Query: Looking for the measured IC50 of `Fc1ccc(NC(=S)Nc2cccc(Cl)c2)cc1` , can you help?
Response: 19.1

Query: Looking for the measured IC50 of `S=C(Nc1cccc(Cl)c1)Nc1cccc(Cl)c1` , can you help?
Response: 20

Query: Looking for the measured IC50 of `S=C(Nc1ccccc1)Nc1ccncc1` , can you help?
Response: 43.9

Query: Looking for the measured IC50 of `S=C(Nc1ccccc1)Nc1cccnc1` , can you help?
Response: 8.43

Query: Looking for the measured IC50 of `S=C(NCc1ccncc1)Nc1ccccc1` , can you help?
Response: 32.6

Query: Looking for the measured IC50 of `Cc1cccnc1NC(=S)Nc1ccccc1` , can you help?
Response: 25.3
